Collected growth values appear next to each entry.
# Tested on: SK-MEL-5 melanoma
# method-summary: NCI-60 one-dose screen, 48 h (100 = growth as untreated, 0 = no growth, -100 = all killed)
# experimental-parameters: 10 µM unless noted
Compounds without any hit were thinned out: in the full panel of roughly 83,000, 20% have a hit.
Field format: number, assumed %, no unit text.

molecule: O=C(Nc1ccc(-n2ccc3c(NC(=O)c4ccccc4)ncnc32)cc1)Nc1ccc(Cl)c(C(F)(F)F)c1
growth / %: 8.12
--
molecule: CCNC(=O)Oc1ccc(/C(=C(/CC)Cc2ccccc2)c2ccc(OCCN3CCOCC3)cc2)cc1
growth / %: 39.5
--
molecule: N#Cc1c2c(c(N)[nH]c1=O)C(=O)NC2(O)c1ccccc1 (stereo unspecified)
growth / %: 98.6

Entry under test: Nc1nc(=S)ss1 . Its growth was 110

Entry under test: O=C(/C=C/c1ccco1)c1cccc(Nc2nc(Nc3ccccc3)nc(Nc3ccccc3)n2)c1 . Its growth was 81.2

Entry under test: COc1cc(C(=O)C[n+]2ccccc2)ccc1OC(C)=O . Its growth was 98

====

# System: U251 CNS
# method-summary: NCI-60 one-dose screen, 48 h (100 = growth as untreated, 0 = no growth, -100 = all killed)
# experimental-parameters: 10 µM unless noted
Compounds without any hit were thinned out: in the full panel of roughly 83,000, 20% have a hit.
Values of growth greater than or equal to 70% map to fulfilled; values below map to not fulfilled.

molecule: CN1CCN(CC(O)COc2c(Br)c(Br)c(Br)c3c2OC(C)(C)C3)CC1 (stereo not given)
answer-label: not fulfilled
--
molecule: OCc1cn(-c2ccc(Cl)cc2)nc1-c1ccc(O)cc1
answer-label: fulfilled
--
molecule: COc1ccc2c(c1)OC(N(C(C)=O)C(C)=O)=C(C#N)C2c1ccc(F)cc1 (stereo not given)
answer-label: not fulfilled
--
molecule: COc1cccc(-c2nc3sccn3c2-c2ccnc(NCCNC(=O)c3ccccc3)n2)c1
answer-label: fulfilled
--
molecule: CC(C)CNCC(O)COc1ccc(C(C)(C)c2ccc(OCC(O)CNCC(C)C)cc2)cc1 (stereo not given)
answer-label: not fulfilled

Request: Could you tell me if the measured growth of CC1CCC(C(C)C)C(NN)C1 (stereo not given) reaches 70% or more?
Response: fulfilled

Request: Could you tell me if the measured growth of Cc1ccc(Cn2cc(COc3ccc4c5ccnc(C)c5n(CCCc5ccccc5)c4c3)nn2)cc1 reaches 70% or more?
Response: fulfilled

Request: Could you tell me if the measured growth of CCn1c(SC)nnc1-c1cc2c([nH]c3ccccc32)c(-c2cccc(O)c2)n1 reaches 70% or more?
Response: not fulfilled

Request: Could you tell me if the measured growth of O=C(Nc1ccc(-n2cc(-c3ccncc3)c(-c3ccc(O)c(Cl)c3)n2)cc1)c1cc(Cl)cc(Cl)c1 reaches 70% or more?
Response: not fulfilled

====

# Tested on: OVCAR-4 ovarian
# method-summary: NCI-60 one-dose screen, 48 h (100 = growth as untreated, 0 = no growth, -100 = all killed)
# experimental-parameters: 10 µM unless noted
Compounds without any hit were thinned out: in the full panel of roughly 83,000, 20% have a hit.
Please use Met for growth under 90% and Not met for everything else, ties included.

Please review the following examples before continuing.
compound: CC(CN(C)C)CN1c2ccccc2CCc2ccccc21 (stereo not given)
answer-label: Met
--
compound: CCCc1nn2c(CCC(=O)c3nc4ccc([N+](=O)[O-])cc4[nH]3)nnc2s1
answer-label: Not met
--
compound: Cc1cn(-c2cc(C(=O)Nc3cccc(-n4ccc5c(NC(=O)c6ccccc6)nccc54)c3)cc(C(F)(F)F)c2)cn1
answer-label: Met
--
compound: O=C(CNc1cccnc1)Nc1ccc(C(=O)/C=C/c2ccc(Cl)cc2)cc1
answer-label: Met
--
compound: C[C@@H]1CC2C3C[C@H](F)C4=CC(=O)C=C[C@]4(C)[C@@]3(F)[C@@H](O)C[C@]2(C)[C@@]1(O)C(=O)CO (stereo not given in full)
answer-label: Not met

Request: I wonder whether CCCCOc1c(N)cc(Cl)cc1C(=O)OCCN(CC)CC has growth below 90%. Can you tell?
Response: Not met

Request: I wonder whether CCc1cccc(-c2ccccc2)c1 has growth below 90%. Can you tell?
Response: Not met

Request: I wonder whether O=c1nc(N2CCOCC2)oc2c(-c3cccc4ccccc34)cccc12 has growth below 90%. Can you tell?
Response: Not met
